measured-target: T1, biotinylated c-Met-Fc (R&D Systems, #358-MT-100/CF, 5.1 biotin per c-Met molecule) (human, UniProt P08581 25-932, biotinylated, 5.1 biotin per c-Met molecule (Pierce #21335))
T1 construct: extracellular domain; Captured on a streptavidin (SA) chip for the BIAcore study of the IgGs; Fc part of the bought chimera not given
T1 sequence (P08581 25-932): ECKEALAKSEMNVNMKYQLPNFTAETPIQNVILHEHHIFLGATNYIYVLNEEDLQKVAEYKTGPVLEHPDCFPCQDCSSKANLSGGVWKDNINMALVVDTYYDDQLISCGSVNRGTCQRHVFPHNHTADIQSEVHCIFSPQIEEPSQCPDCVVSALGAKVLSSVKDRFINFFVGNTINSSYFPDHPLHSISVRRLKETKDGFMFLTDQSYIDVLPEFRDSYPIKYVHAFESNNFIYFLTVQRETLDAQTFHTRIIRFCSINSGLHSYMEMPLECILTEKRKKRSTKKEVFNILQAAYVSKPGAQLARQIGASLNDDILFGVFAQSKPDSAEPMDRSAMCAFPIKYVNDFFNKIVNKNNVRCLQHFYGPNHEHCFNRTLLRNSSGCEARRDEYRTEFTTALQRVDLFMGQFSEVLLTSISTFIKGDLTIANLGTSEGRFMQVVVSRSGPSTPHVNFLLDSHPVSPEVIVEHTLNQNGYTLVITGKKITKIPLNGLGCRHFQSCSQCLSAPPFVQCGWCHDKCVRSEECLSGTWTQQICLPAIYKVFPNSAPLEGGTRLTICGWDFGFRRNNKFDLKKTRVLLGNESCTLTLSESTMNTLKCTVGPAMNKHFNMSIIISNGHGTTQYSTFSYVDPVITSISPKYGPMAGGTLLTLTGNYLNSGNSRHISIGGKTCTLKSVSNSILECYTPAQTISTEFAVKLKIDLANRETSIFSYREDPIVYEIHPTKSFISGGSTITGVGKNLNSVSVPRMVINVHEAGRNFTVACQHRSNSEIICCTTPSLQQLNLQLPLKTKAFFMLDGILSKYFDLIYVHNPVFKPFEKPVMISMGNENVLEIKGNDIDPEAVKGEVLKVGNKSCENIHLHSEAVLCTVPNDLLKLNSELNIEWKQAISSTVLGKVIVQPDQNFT
assay-notes: SPR (BIAcore), biotinylated c-Met-Fc captured on streptavidin chip, IgG as analyte, bivalent model
reported-property: koff (s⁻¹)

binder	experimental-value
c-Met IgG antibody 12119 (antibody, V domains shown, IgG of scFv PGIA-5-A1; also called 12119 IgG; IgG of scFv PGIA-05-A1 (PGIA-5-A1)) VH: QLQLQESGPGLVKPSGTLSLTCAVSGGSISTSDWWSWVRRPPGKGLEWIGEIYHSGSTNYHPSLKSRVTISLDKSKNQFSLKLSSVTAADTAVYYCAREGGHSGSYPLDYWGRGTLVTVSS VL: NFMLTQPHSVSESPGKTVTISCARSSGSIASNYVQWYQQRPGSSPTTLIYEDRQRPSGVPDRFSGSIDSSSNSASLTISGLKTEDEADYYCQSYDSSDHVVFGGGTKLTVLG	0.00112
c-Met IgG antibody 11994 (antibody, V domains shown, IgG of scFv PGIA-3-A9; also called 11994 IgG; 11994-50) VH: QVQLQESGPGLVKPSGTLSLTCAVSGGSISTSDWWSWVRRPPGKGLEWIGEIYHSGSTNYHPSLKSRVTISLDKSKNQFSLKLSSVTAADTAVYYCAREGGHSGSYPLDYWGKGTLVTVSS VL: NFMLTQPHSVSESPGKTVTISCTRSSGSIASNYVQWYQQRPGSSPTTVIYEDNQRPSGVPDRFSGSIDSSSNSASLTISGLKTEDEADYYCQSYDSSNQGVVFGGGTKLTVLG	0.000759
c-Met IgG antibody 12075 (antibody, V domains shown, IgG of scFv PGIA-3-A11; also called 12075 IgG; IgG of scFv PGIA-03-A11 (PGIA-3-A11)) VH: QVQLVQSGPEVKKPGASVEVSCKASGYTFTGDYMHWVRQAPGQGPEWMGWINPQTGVTKYAQKFQGRVTMARDTSINTAYMELRGLRSDDTAVYYCVREDHNYDLWSAYNGLDVWGQGTLVTVSS VL: QSVLTQPPSVSAAPGQKVTISCSGSSSNIGNNHVSWYQQLAGTAPKLLIFDNDKRPSGIPDRFSGSKSGTSATLGITGLQTGDEADYYCGTWDKSPTDIYVFGSGTKLTVLG	0.00845
